target: pooled human IgG (human IgG1,2,3 and 4)
attribute measured: Enzyme activity endpoint: Fab′2 (ng/µL)
Supply the numeric figure in ng/µL, leaving out any unit text.

Req: Given the protein PRT-652 (protein) MQITSVWTKGVTPLTPEQFRYNNEDVIHAPYLAHQGWYDITKAFDGKDNLLCGAATAGNMLHWWFDQNKTEIEAYLSKHPEKQKIIFNNQELFDLKAAIDTKDSQTNSQLFNYFRDKAFPNLSARQLGVMPDLVLDMFINGYYLNVFKTQSTDVNRPYQDKDKRGGIFDAVFTRGDQTTLLTARHDLKNKGLNDISTIIKQELTEGRALALSHGTANGGYSHVINLWGADFNAEGNLEAIYVTDSDANASIGMKKYFVGINAHGHVAISAKKIEGENKGAQVLGLFTLSSGKDIWQKLSLEHHHHHH , write its reported Enzyme activity endpoint: Fab′2.
Resp: 410
